Listing: IC50 of selected compounds
# target: MCL-1 (Homo sapiens (Human), UniProt Q07820, K194A/K197A/R201A)
# Sequence (Q07820 whole entry K194A/K197A/R201A, looked up): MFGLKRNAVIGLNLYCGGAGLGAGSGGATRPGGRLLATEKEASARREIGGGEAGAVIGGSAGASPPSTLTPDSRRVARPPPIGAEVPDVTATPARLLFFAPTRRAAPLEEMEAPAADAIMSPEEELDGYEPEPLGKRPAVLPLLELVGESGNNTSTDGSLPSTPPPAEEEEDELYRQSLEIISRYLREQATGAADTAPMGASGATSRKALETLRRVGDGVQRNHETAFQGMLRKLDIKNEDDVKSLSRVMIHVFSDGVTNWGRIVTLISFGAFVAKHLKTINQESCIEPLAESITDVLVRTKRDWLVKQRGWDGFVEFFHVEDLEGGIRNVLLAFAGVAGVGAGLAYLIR
# measurement-protocol: Protein-protein interaction assay MCL-1/Noxa BH3 peptide (MCL-1 assay), TR-FRET
# Format: binding
# condition-parameters: MCL-1/Noxa BH3 peptide TR-FRET; median
Field format: number, assumed nM, no unit text.

compound	IC50, nM
Cc1cc(OCCCc2c(C(=O)O)n3c4c(c(F)ccc24)-c2c(C)nn(C)c2COCCCC3)cc(C)c1Cl (racemic)	2.1
Cc1c2c(nn1C)COCCCCn1c(C(=O)O)c(CCCOc3ccc(F)c4ccccc34)c3ccc(F)c-2c31 (single isomer, unassigned; enantiomer 1) [Example 16]	1.9
CCc1nn(C)c2c1-c1c(F)ccc3c(CCCOc4ccc(F)c5ccccc45)c(C(=O)O)n(c13)CCCCOC2 (single isomer, unassigned; enantiomer 1) [Example 42]	1.7

INPUT: Endpoint output: IC50 of Cc1c2c(nn1C)COCCCCn1c(C(=O)O)c(CCCOc3cccc4ccccc34)c3ccc(F)c-2c31 (single isomer, unassigned; enantiomer 1) [Example 3] . Value?
OUTPUT: 1.3

INPUT: Endpoint output: IC50 of CCc1c2c(nn1C)CN(C)CCCCn1c(C(=O)O)c(CCCOc3cccc4ccccc34)c3ccc(F)c-2c31 (racemic) . Value?
OUTPUT: 0.72

INPUT: Endpoint output: IC50 of CCc1nn(C)c2c1-c1c(F)ccc3c(CCCOc4cccc5cc(F)ccc45)c(C(=O)O)n(c13)CCCCOC2 (racemic) [Example 38] . Value?
OUTPUT: 1.1

----------
# Test system: SUDHL5
# measurement-protocol: Induction of cytotoxicity, SUDHL5 (Assay 6)
# condition-parameters: Homo sapiens, SU-DHL-5, 5 h, read-out: IC50 Cytotox SUDHL5 [M] (median), SUDHL5 cells, 5 h, CellTiter-Glo
Where a name gives a salt, the structure may show the parent alone.
Listing: IC50 of selected compounds
Field format: number, assumed M, no unit text.

Please review the entries below; each comes with its answer.
> print(dat)
                                   compound  target  measured
1  CCc1nn(C)c2c1-c1c(F)ccc3c(CCCOc4cccc5c4CCCC5)c(C(=O)O)n(c13)CCCCOC2 (racemic)  SUDHL5   1.9e-06
2  Cc1c2c(nn1C)CNCCCCn1c(C(=O)O)c(CCCOc3cccc4ccccc34)c3ccc(F)c-2c31 (racemic) [Example 47, trifluoroacetic acid salt]  SUDHL5   2.2e-06
3  Cc1c2c(nn1C)COCCCCn1c(C(=O)O)c(CCCOc3ccc(F)c4ccccc34)c3ccc(F)c-2c31 (racemic)  SUDHL5   1.1e-06

INPUT: Endpoint output: IC50 of Cc1nn(C)c2c1-c1c(F)ccc3c(CCCOc4cccc5c4CCC5)c(C(=O)O)n(c13)CCCCOC2 (racemic) . Value?
OUTPUT: 7.1e-06

INPUT: Endpoint output: IC50 of Cc1nn(C)c2c1-c1c(F)ccc3c(CCCOc4ccc(F)c5ccccc45)c(C(=O)O)n(c13)CCCCOC2 (racemic) . Value?
OUTPUT: 3.5e-06

INPUT: Endpoint output: IC50 of Cc1nn(C)c2c1-c1c(F)ccc3c(CCCOc4cccc5ccccc45)c(C(=O)O)n(c13)C/C=C\COC2 (racemic) . Value?
OUTPUT: 2.9e-06
